Attribution: the supplement of paper PMC10567573

B1: VAMP4 (parent)
chain: IMALVAAILLLVIIILIVMKYRT

- Variants of: B1
- testDetails: protein stability index of a GFP-peptide fusion (GPS, HEK-293T) (PSI 1-6); higher = more stable;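 also: lentivirally expressed fusions sorted by FACS into six bins by GFP to DsRed ratio, PSI derived from sequencing read proportions per bin multiplied by bin number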
- conditionParameters: c terminus: native
I would appreciate it if you labelled entries T when protein stability index is 3 or higher, otherwise F.

seqText: IMALVAAILLLVIIIEIVMKYRT [L16E]
labelValue: T

seqText: IMALRAAILLLVIIILIVMKYRT [V5R]
labelValue: F

In: In plain terms: is recorded protein stability index at least 3 for IMALVAAILLLVIIILIVVKYRT [M19V] ?
Out: T

In: Okay, and IMALVAAILLLVGIILIVMKYRT [I13G] ?
Out: T

In: Okay, and IMALVAAILLLVWIILIVMKYRT [I13W] ?
Out: T

In: Okay, and IMALVAAILTLVIIILIVMKYRT [L10T] ?
Out: F

In: Okay, and IMALVAHILLLVIIILIVMKYRT [A7H] ?
Out: F

In: Okay, and IMALVAAILLLVIIILIVSKYRT [M19S] ?
Out: T
